Data provenance: PubChem BioAssay AID1159580

# experiment-notes: chemical genetic growth profiling, strain panel (AID 1159580);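 also: tested at 20 µM; growth read once vehicle control cultures reached saturation at 30 °C; 1 = growth at the plate median or of vehicle wells; lower values mean less growth of the strain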
# settings: S. cerevisiae deletion strains, growth OD, locus YMR078C, strain ctf18, stronger effect = lower value
In all, about 5,500 compounds went through this assay and about 2,000 (36%) were called active. About 18% were inconclusive and are not listed. This is one part of the list.
Listing of entries alongside the reported normalized growth.

                                   compound          observed
0     CCCCCN=C(N)N/N=C\c1c[nH]c2ccc(OC)cc12   1.03 (inactive)
1  CC1(C)C=Cc2c(cc3occ(-c4ccc5c(c4)OCO5)c(=O)c3c2O)O1   1.04 (inactive)
2  O=C1OC(=O)C2C3CCC(O3)C12 (stereo unspecified)  0.963 (inactive)

Per the records, this compound ( Cn1c([N+](=O)[O-])cnc1COC(N)=O ) has normalized growth equal to 0.983 (inactive)

Memo: CSCCC(NC=O)C(=O)NC(CC(C)C)C(=O)NC(Cc1ccccc1)C(=O)O (stereo unspecified) , reported normalized growth: 1 (inactive)

// normalized growth value for CCNc1nc(Cl)nc(NC(C)C)n1 : 1.01 (inactive)
